Catalogue of bioavailability readings, one per entry.
- method: Oral bioavailability in rat at 10 mg/kg
- Format: ADME, organism-based
- experimental setup: in vivo
Provide only the numeric value, understood in %.

input smiles | bioavailability, %
OC[C@H]1O[C@@H](c2ccc(Cl)c(Cc3ccc4c(c3)CC4)c2)[C@H](O)[C@@H](O)[C@@H]1O | 78

Please find the next compound below.
-- ask Give its bioavailability value. Item: Cc1cc(O)c([C@@H]2O[C@H](CO)[C@@H](O)[C@H](O)[C@H]2O)cc1Cc1ccc2c(c1)CC2
-- reply 49

---

- method: Cmax in rat at 10 mg/kg administered via oral gavage
- Format: ADME, organism-based
- Design: dose 10 mg/kg, route oral
- experimental setup: in vivo
quantity measured: Cmax (ng/mL)
Provide only the numeric value, understood in ng/mL.

input smiles | Cmax [ng/mL]
Cc1cc(O)c([C@@H]2O[C@H](CO)[C@@H](O)[C@H](O)[C@H]2O)cc1Cc1ccc2c(c1)CC2 | 717

Please find the next compound below.
-- ask Give its Cmax value. Item: OC[C@H]1O[C@@H](c2ccc(Cl)c(Cc3ccc4c(c3)CC4)c2)[C@H](O)[C@@H](O)[C@@H]1O
-- reply 634

---

- method: Systemic clearance in rat at 2 mg/kg, iv
- Assay type: ADME, organism-based
- experimental setup: in vivo
Catalogue of clearance readings, one per entry.
Provide only the numeric value, understood in mL/min/kg.

input smiles | quantity measured | value unit | reading
Cc1cc(O)c([C@@H]2O[C@H](CO)[C@@H](O)[C@H](O)[C@H]2O)cc1Cc1ccc2c(c1)CC2 | clearance | mL/min/kg | 47.8

Please find the next compound below.
-- ask Give its clearance value. Item: OC[C@H]1O[C@@H](c2ccc(Cl)c(Cc3ccc4c(c3)CC4)c2)[C@H](O)[C@@H](O)[C@@H]1O
-- reply 48.3

---

- method: AUC (infinity) in dog at 10 mg/kg administered via oral gavage
- Type: ADME, organism-based, Canis lupus familiaris
- Design: dose 10 mg/kg, route oral, time infinity
- experimental setup: in vivo
quantity measured: AUC(0-inf) (µg·h/mL)
Provide only the numeric value, understood in µg·h/mL.

-- ask Give its AUC(0-inf) value. Item: OC[C@H]1O[C@@H](c2ccc(Cl)c(Cc3ccc4c(c3)CC4)c2)[C@H](O)[C@@H](O)[C@@H]1O
-- reply 332

---

- method: Volume of distribution at steady state in dog at 2 mg/kg, iv
- Format: ADME, organism-based, Canis lupus familiaris
- experimental setup: in vivo, read-out: Vdss
quantity measured: Vd (L/kg)
Provide only the numeric value, understood in L/kg.

-- ask Give its Vd value. Item: OC[C@H]1O[C@@H](c2ccc(Cl)c(Cc3ccc4c(c3)CC4)c2)[C@H](O)[C@@H](O)[C@@H]1O
-- reply 0.4

---

- method: Cmax in dog at 2 mg/kg, iv
- Format: ADME, organism-based, Canis lupus familiaris
- Parameters: dose 2 mg/kg, route intravenous
- experimental setup: in vivo
quantity measured: Cmax (ng/mL)
Provide only the numeric value, understood in ng/mL.

-- ask Give its Cmax value. Item: OC[C@H]1O[C@@H](c2ccc(Cl)c(Cc3ccc4c(c3)CC4)c2)[C@H](O)[C@@H](O)[C@@H]1O
-- reply 9600

---

- method: Oral bioavailability in monkey at 10 mg/kg
- Assay type: ADME, organism-based, Macaca mulatta
- experimental setup: rhesus monkey, in vivo
quantity measured: bioavailability (%)
Provide only the numeric value, understood in %.

-- ask Give its bioavailability value. Item: OC[C@H]1O[C@@H](c2ccc(Cl)c(Cc3ccc4c(c3)CC4)c2)[C@H](O)[C@@H](O)[C@@H]1O
-- reply 88

---

- method: Terminal half life in dog at 10 mg/kg administered via oral gavage
- Format: ADME, organism-based, Canis lupus familiaris
- experimental setup: in vivo, read-out: beta t1/2 (converted)
quantity measured: half-life (h)
Provide only the numeric value, understood in h.

-- ask Give its half-life value. Item: OC[C@H]1O[C@@H](c2ccc(Cl)c(Cc3ccc4c(c3)CC4)c2)[C@H](O)[C@@H](O)[C@@H]1O
-- reply 12.8

---

- method: Volume of distribution at steady state in monkey at 2 mg/kg, iv
- Assay type: ADME, organism-based, Macaca mulatta
- experimental setup: rhesus monkey, in vivo, read-out: Vdss
quantity measured: Vd (L/kg)
Provide only the numeric value, understood in L/kg.

-- ask Give its Vd value. Item: OC[C@H]1O[C@@H](c2ccc(Cl)c(Cc3ccc4c(c3)CC4)c2)[C@H](O)[C@@H](O)[C@@H]1O
-- reply 0.91

---

- method: AUC (infinity) in dog at 2 mg/kg, iv
- Assay type: ADME, organism-based, Canis lupus familiaris
- Design: dose 2 mg/kg, time infinity, route intravenous
- experimental setup: in vivo
quantity measured: AUC(0-inf) (ng·h/mL)
Provide only the numeric value, understood in ng·h/mL.

-- ask Give its AUC(0-inf) value. Item: OC[C@H]1O[C@@H](c2ccc(Cl)c(Cc3ccc4c(c3)CC4)c2)[C@H](O)[C@@H](O)[C@@H]1O
-- reply 50800
